Each recorded value in this set is attributed to the Kinase Knowledgebase extract (Sharma et al. 2016).

Record type: pIC50 measurement. Applies to: UniProt:P00533
Sequence (P00533 whole entry, looked up): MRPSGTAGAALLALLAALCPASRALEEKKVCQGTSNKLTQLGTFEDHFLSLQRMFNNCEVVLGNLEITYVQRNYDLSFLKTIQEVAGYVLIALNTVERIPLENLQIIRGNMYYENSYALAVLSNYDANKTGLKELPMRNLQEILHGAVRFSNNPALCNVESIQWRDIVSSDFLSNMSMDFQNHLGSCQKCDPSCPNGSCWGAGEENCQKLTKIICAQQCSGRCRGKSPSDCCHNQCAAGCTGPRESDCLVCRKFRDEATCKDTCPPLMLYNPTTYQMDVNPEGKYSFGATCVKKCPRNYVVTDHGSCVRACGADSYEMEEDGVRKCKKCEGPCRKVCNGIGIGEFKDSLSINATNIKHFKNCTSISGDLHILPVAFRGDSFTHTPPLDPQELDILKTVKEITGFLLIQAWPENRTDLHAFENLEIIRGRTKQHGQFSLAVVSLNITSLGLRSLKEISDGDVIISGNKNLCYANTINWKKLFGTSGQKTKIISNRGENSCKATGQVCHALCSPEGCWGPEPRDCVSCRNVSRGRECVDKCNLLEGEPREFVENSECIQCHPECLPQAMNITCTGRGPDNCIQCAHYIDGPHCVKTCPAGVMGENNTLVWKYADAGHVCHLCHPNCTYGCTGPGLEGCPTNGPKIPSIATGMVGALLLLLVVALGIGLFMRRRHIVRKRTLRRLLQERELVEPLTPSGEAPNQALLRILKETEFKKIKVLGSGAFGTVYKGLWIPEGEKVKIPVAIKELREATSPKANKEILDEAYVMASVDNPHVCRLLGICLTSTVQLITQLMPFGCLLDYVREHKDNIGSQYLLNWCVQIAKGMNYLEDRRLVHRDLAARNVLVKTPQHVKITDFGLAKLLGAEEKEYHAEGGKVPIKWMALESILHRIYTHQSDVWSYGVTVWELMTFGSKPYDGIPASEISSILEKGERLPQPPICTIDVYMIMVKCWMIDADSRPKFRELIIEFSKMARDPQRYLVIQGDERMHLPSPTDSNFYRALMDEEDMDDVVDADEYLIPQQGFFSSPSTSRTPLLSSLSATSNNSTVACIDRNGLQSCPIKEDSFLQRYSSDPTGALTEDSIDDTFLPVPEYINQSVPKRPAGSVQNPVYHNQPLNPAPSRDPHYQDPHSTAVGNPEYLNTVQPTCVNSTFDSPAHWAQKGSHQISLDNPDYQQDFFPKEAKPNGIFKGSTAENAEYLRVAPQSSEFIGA
Bear in mind: pIC50 is minus log10 of a mol/L concentration; give just that figure.

Past entries and their recorded results:
O=C1c2cc(O)cc(O)c2C(=O)c2c1cc(O)c(C(CCO)C(=O)O)c2O (configuration not stated); 4.98
O=C1c2cc(O)cc(O)c2C(=O)c2c1cc(O)c(C1CCOC1=O)c2O (configuration not stated); 4.96
COC(=O)C(CCC(C)=O)c1c(O)cc2c(c1O)C(=O)c1c(O)cc(O)cc1C2=O (configuration not stated); 4.77
O=C1c2cc(O)cc(O)c2C(=O)c2c1cc(O)c(CO)c2O; 5.17
O=C1c2cc(O)cc(O)c2C(=O)c2c1cc(O)c(C(CO)CCO)c2O (configuration not stated); 4.68
CC(=O)CCC(C(=O)O)c1c(O)cc2c(c1O)C(=O)c1c(O)cc(O)cc1C2=O (configuration not stated); 4.68

INPUT: I am curious: what pIC50 value has been reported for C[C@]12CC[C@@H](CO1)c1c(cc3c(c1O)C(=O)c1c(O)cc(O)cc1C3=O)O2 ?
OUTPUT: 4.42
